Entries and their measured half-life at 20 µM follow.
Experiment: Half life in simulated intestinal fluid at 20 uM by LC-MS/MS analysis
Assay type: ADME

Input smiles | Val
CC(=O)NCCCC[C@H](NC(=O)[C@H](CCC(C)C)NC(=O)[C@H](Cc1ccc2ccccc2c1)NC(=O)[C@H](Cc1ccc(OCCN)cc1)NC(=O)[C@@H]1CSCC[C@H](NC(C)=O)C(=O)N[C@@H](CCC(N)=O)C(=O)N[C@@H]([C@@H](C)O)C(=O)N[C@@H](Cc2c[nH]c3ccccc23)C(=O)N[C@@H](CCC(N)=O)C(=O)N1)C(=O)N[C@@H](CC(N)=O)C(=O)NCCC(N)=O | < 1 h

Let us examine a further case.
Look up half-life at 20 µM for this compound: CC(=O)NCCCC[C@H](NC(=O)[C@H](CCCN)NC(=O)[C@H](Cc1ccc2ccccc2c1)NC(=O)[C@H](Cc1ccc(OCCN)cc1)NC(=O)[C@@H]1CSCC[C@H](NC(C)=O)C(=O)N[C@@H](CCC(N)=O)C(=O)N[C@@H]([C@@H](C)O)C(=O)N[C@@H](Cc2c[nH]c3ccccc23)C(=O)N[C@@H](CCC(N)=O)C(=O)N1)C(=O)N[C@@H](CC(N)=O)C(=O)NCC(N)=O
< 1 h

====

Biological target: UniProt Q5VWK5
Assay: Inhibition of interleukin-23 binding to human interleukin-23 receptor incubated for 2 hrs by competitive binding ELISA
Where a SMILES comes first, the peptide text is derived from it. [ ]: non-standard residue; d: D form. hLeu = CC(C)CC[C@H](N)C(=O)O
Entries and their measured IC50 follow.

Worked cases, IC50 given:
Compound | IC50
CC(=O)N[C@@H](CS)C(=O)N[C@@H](C)C(=O)N[C@@H](CC(=O)O)C(=O)N[C@@H](Cc1c[nH]c2ccccc12)C(=O)N[C@H](C(=O)N[C@@H](CS)C(=O)N[C@@H](Cc1ccc(O)cc1)C(=O)N[C@@H](Cc1cccc2ccccc12)C(=O)N[C@@H](Cc1ccccc1)C(=O)N[C@H](C(=O)N[C@@H](Cc1ccccc1)C(=O)NCC(N)=O)[C@@H](C)O)C(C)C | > 1000 nM
CC(=O)N[C@H](C(=O)N[C@@H](CCC(N)=O)C(=O)N[C@H](C(=O)N[C@@H](Cc1c[nH]c2ccccc12)C(=O)N[C@@H](CCC(N)=O)C(=O)N[C@H](C(=O)N[C@@H](Cc1ccc(O)cc1)C(=O)N[C@@H](Cc1c[nH]c2ccccc12)C(=O)N(C)[C@@H](CCCNC(=N)N)C(=O)N[C@@H](CCC(=O)O)C(=O)N[C@@H](CC(N)=O)C(=O)NCC(N)=O)C(C)(C)S)[C@@H](C)O)C(C)(C)S | > 30000 nM
CC(=O)N[C@@H](CS)C(=O)N[C@@H](CCC(N)=O)C(=O)N[C@H](C(=O)N[C@@H](CC(N)=O)C(=O)N[C@@H](CCC(N)=O)C(=O)N[C@@H](CS)C(=O)N[C@@H](Cc1ccc(O)cc1)C(=O)N[C@@H](Cc1c[nH]c2ccccc12)C(=O)N[C@@H](CCC(C)C)C(=O)N[C@@H](CCC(=O)O)C(=O)N[C@@H](CC(N)=O)C(=O)NCC(N)=O)[C@@H](C)O (Ac-CQTNQCYW[hLeu]ENG-NH2) | > 10000 nM
CC(=O)NCCCC[C@H](NC(=O)[C@H](CCCN)NC(=O)[C@H](Cc1ccc2ccccc2c1)NC(=O)[C@H](Cc1ccc(OCCN)cc1)NC(=O)[C@@H]1CSCC[C@H](NC(C)=O)C(=O)N[C@@H](CCC(N)=O)C(=O)N[C@@H]([C@@H](C)O)C(=O)N[C@@H](Cc2c[nH]c3ccccc23)C(=O)N[C@@H](CCC(N)=O)C(=O)N1)C(=O)N[C@@H](CC(N)=O)C(=O)NCC(N)=O | 10 to 25 nM
CC(=O)N[C@@H](CS)C(=O)N[C@@H](CCC(N)=O)C(=O)N[C@H](C(=O)NCC(=O)N[C@@H](CCC(N)=O)C(=O)N[C@@H](CS)C(=O)N[C@@H](Cc1ccc(O)cc1)C(=O)N[C@@H](Cc1c[nH]c2ccccc12)C(=O)N[C@@H](CCC(C)C)C(=O)N[C@@H](CCC(=O)O)C(=O)N[C@@H](CC(N)=O)C(=O)NCC(N)=O)[C@@H](C)O (Ac-CQTGQCYW[hLeu]ENG-NH2) | > 10000 nM

Look up IC50 for this compound: CC(=O)N[C@H](C(=O)N[C@@H](CCC(N)=O)C(=O)N[C@H](C(=O)N[C@@H](Cc1c[nH]c2ccccc12)C(=O)N[C@@H](CCC(N)=O)C(=O)N[C@H](C(=O)N[C@@H](Cc1ccc(OCCN)cc1)C(=O)N[C@@H](Cc1ccc2ccccc2c1)C(=O)N[C@@](C)(CCCCN)C(=O)N[C@@H](CCC(=O)O)C(=O)N[C@@H](CC(N)=O)C(=O)N[C@@H](C)C(N)=O)C(C)(C)S)[C@@H](C)O)C(C)(C)S
< 10 nM

Look up IC50 for this compound: CSCC[C@H](NC(=O)[C@H](Cc1c[nH]c2ccccc12)NC(=O)[C@H](CC(=O)O)NC(=O)[C@H](C)NC(=O)[C@@H](N)CS)C(=O)N[C@@H](CS)C(=O)N[C@@H](Cc1ccc(O)cc1)C(=O)N[C@@H](Cc1c[nH]c2ccccc12)C(=O)N[C@@H](Cc1cnc[nH]1)C(=O)N[C@@H](CCC(=O)O)C(=O)N[C@@H](Cc1ccc(O)cc1)C(=O)NCC(N)=O (H-CADWMCYWHEYG-NH2)
500 to 1000 nM

Look up IC50 for this compound: CC(=O)N[C@@H](CS)C(=O)N[C@@H](CCCNC(=N)N)C(=O)N[C@H](C(=O)N[C@@H](Cc1c[nH]c2ccccc12)C(=O)N[C@@H](CCC(N)=O)C(=O)N[C@@H](CS)C(=O)N[C@@H](Cc1ccc(O)cc1)C(=O)N[C@@H](Cc1c[nH]c2ccccc12)C(=O)N[C@@H](Cc1cnc[nH]1)C(=O)N[C@@H](CCC(=O)O)C(=O)N[C@@H](Cc1ccc(O)cc1)C(=O)NCC(N)=O)[C@@H](C)O (Ac-CRTWQCYWHEYG-NH2)
< 500 nM

Look up IC50 for this compound: CC(C)[C@H](NC(=O)[C@H](Cc1c[nH]c2ccccc12)NC(=O)[C@H](CC(=O)O)NC(=O)[C@H](C)NC(=O)[C@H](CS)NC(=O)COCCN)C(=O)N[C@@H](CS)C(=O)N[C@@H](Cc1ccc(O)cc1)C(=O)N[C@@H](Cc1c[nH]c2ccccc12)C(=O)N[C@@H](Cc1cnc[nH]1)C(=O)N[C@H](C(=O)N[C@@H](Cc1ccccc1)C(=O)NCC(=O)O)[C@@H](C)O
> 1000 nM

Look up IC50 for this compound: C[C@@H](O)[C@H](NC(=O)[C@H](CC(=O)O)NC(=O)[C@@H](N)CS)C(=O)N[C@@H](Cc1c[nH]c2ccccc12)C(=O)N[C@@H](CCCCN)C(=O)N[C@@H](CS)C(=O)N[C@@H](Cc1ccc(O)cc1)C(=O)N[C@@H](Cc1c[nH]c2ccccc12)C(=O)N[C@@H](Cc1cnc[nH]1)C(=O)N[C@@H](CCCNC(=N)N)C(=O)N[C@@H](CCC(N)=O)C(=O)N[C@@H](CO)C(N)=O (H-CDTWKCYWHRQS-NH2)
500 to 1000 nM

====

Target: Interleukin-23 receptor (Homo sapiens, UniProt Q5VWK5)
Sequence (Q5VWK5 whole entry): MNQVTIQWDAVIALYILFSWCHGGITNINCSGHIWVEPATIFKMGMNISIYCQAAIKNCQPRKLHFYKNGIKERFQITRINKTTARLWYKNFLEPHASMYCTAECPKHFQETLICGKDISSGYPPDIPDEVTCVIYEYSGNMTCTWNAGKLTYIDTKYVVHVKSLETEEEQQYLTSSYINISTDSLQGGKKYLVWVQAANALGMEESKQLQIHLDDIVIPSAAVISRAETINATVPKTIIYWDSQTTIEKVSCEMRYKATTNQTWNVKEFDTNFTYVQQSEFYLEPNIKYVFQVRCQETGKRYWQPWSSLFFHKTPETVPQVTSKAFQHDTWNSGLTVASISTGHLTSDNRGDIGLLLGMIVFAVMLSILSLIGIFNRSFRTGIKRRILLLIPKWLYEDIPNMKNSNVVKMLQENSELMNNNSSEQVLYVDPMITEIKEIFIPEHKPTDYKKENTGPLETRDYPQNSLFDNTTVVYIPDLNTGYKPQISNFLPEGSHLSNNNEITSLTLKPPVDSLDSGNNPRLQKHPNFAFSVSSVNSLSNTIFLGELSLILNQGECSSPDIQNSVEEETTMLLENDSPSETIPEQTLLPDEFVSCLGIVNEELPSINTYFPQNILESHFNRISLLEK
Test: Inhibition of interleukin-23 binding to human interleukin-23 receptor incubated for 2 hrs by competitive binding ELISA
Where a SMILES comes first, the peptide text is derived from it.
Parameter measured: IC50

Worked cases, IC50 given:
Molecule | IC50
CSCC[C@H](NC(=O)[C@H](CS)NC(=O)[C@H](Cc1cnc[nH]1)NC(=O)[C@@H](NC(=O)[C@H](CO)NC(=O)CNC(C)=O)C(C)C)C(=O)N[C@H](C(=O)N[C@@H](Cc1c[nH]c2ccccc12)C(=O)N[C@@H](CCC(=O)O)C(=O)N[C@@H](CS)C(=O)N[C@@H](Cc1ccc(O)cc1)C(=O)N[C@@H](Cc1c[nH]c2ccccc12)C(=O)N[C@@H](Cc1cnc[nH]1)C(=O)N[C@H](C(=O)N[C@@H](Cc1ccccc1)C(=O)NCC(N)=O)[C@@H](C)O)[C@@H](C)O (Ac-GSVHCMTWECYWHTFG-NH2) | 0.5 to 1 µM
CC(=O)N[C@H]1CCSC[C@@H](C(=O)N[C@@H](Cc2ccc(OCCN)cc2)C(=O)N[C@@H](Cc2ccc3ccccc3c2)C(=O)N[C@@](C)(CCCCN)C(=O)N[C@@H](CCC(=O)O)C(=O)N[C@@H](CC(N)=O)C(=O)NCC(N)=O)NC(=O)[C@H](CCC(N)=O)NC(=O)[C@H](CCCNCc2ccccc2)NC(=O)[C@H]([C@@H](C)O)NC(=O)[C@H](CCC(N)=O)NC1=O | > 3 µM
CC(=O)N[C@@H](CS)C(=O)N[C@@H](C)C(=O)N[C@@H](CC(=O)O)C(=O)N[C@@H](Cc1c[nH]c2ccccc12)C(=O)N[C@H](C(=O)N[C@@H](CS)C(=O)N[C@@H](Cc1ccc(O)cc1)C(=O)N[C@@H](Cc1c[nH]c2ccccc12)C(N)=O)C(C)C | > 30 µM
CC(=O)N[C@@H](CS)C(=O)N[C@@H](C)C(=O)N[C@@H](CC(=O)O)C(=O)N[C@@H](Cc1c[nH]c2ccccc12)C(=O)N[C@H](C(=O)N[C@@H](CS)C(=O)N[C@@H](Cc1ccc(O)cc1)C(=O)N[C@@H](Cc1ccc(-c2ccccc2)cc1)C(=O)N[C@@H](CCCN)C(=O)N[C@@H](CN)C(=O)N[C@@H](Cc1ccccc1)C(=O)NCC(=O)NCCOCC(=O)N[C@H](CCCCN)C(N)=O)C(C)C | > 30 µM
CC(C)[C@H](NC(=O)[C@H](Cc1c[nH]c2ccccc12)NC(=O)[C@H](CC(=O)O)NC(=O)[C@H](C)NC(=O)[C@H](CS)NC(=O)[C@H](CO)NC(=O)CCN)C(=O)N[C@@H](CS)C(=O)N[C@@H](Cc1ccc(O)cc1)C(=O)N[C@@H](Cc1c[nH]c2ccccc12)C(=O)N[C@@H](Cc1cnc[nH]1)C(=O)N[C@H](C(=O)N[C@@H](Cc1ccccc1)C(=O)NCC(=O)O)[C@@H](C)O | > 1 µM

Let us examine a further case.
Lab note: need IC50 with Interleukin-23 receptor (Homo sapiens, UniProt Q5VWK5) for entry CC(=O)N[C@@H](CS)C(=O)N[C@@H](C)C(=O)N[C@@H](CC(=O)O)C(=O)N[C@@H](Cc1c[nH]c2ccccc12)C(=O)N[C@H](C(=O)N[C@@H](CS)C(=O)N[C@@H](Cc1ccc(O)cc1)C(=O)N[C@@H](Cc1c[nH]c2ccccc12)C(=O)N[C@@H](CCCN)C(=O)N[C@H](C(=O)N[C@@H](Cc1ccccc1)C(=O)NCC(=O)NCCC(=O)N[C@H](CCCCN)C(N)=O)C1CCCCC1)C(C)C , please look it up.
> 30 µM
